Data provenance is PubChem BioAssay (NCI).

Tested on: RPMI-8226 leukemia
protocol: NCI-60 one-dose screen, 48 h (100 = growth as untreated, 0 = no growth, -100 = all killed)
conditionsUsed: 10 µM unless noted
Procedure: Growth inhibition of the RPMI-8226 human tumor cell line is measured as a screen for anti-cancer activity. Cells are grown in 96 well plates and exposed to the test compound for 48 hours. Compounds are tested at a single concentration, which is 10^-5 M for most compounds. The reported endpoint is percent growth (GI% or GIPRCNT), where numbers from 0 - 100% represent growth inhibition, and numbers from -100% - 0 represent cell death. For example, a value of 40 represents 60% growth inhibition. […]
Compounds without any hit were thinned out: in the full panel of roughly 83,000, 20% have a hit.
Given measured growth, output true (1) if it is greater than or equal to 20% and false (0) if not.

Use the examples below as a reference point.
Request: Could you verify whether the entry N#CC1(C#N)C(c2ccc(N(CCCl)CCCl)cc2)OC23CCCCC2C1(C#N)C(=N)O3 (stereo not given) shows growth of no less than 20%?
Response: true (1)

Request: Could you verify whether the entry "CNC(=O)Oc1cccc(C(F)(F)F)c1" shows growth of no less than 20%?
Response: true (1)

Request: Could you verify whether the entry Cc1ccc(C(Cc2ccccc2)NCCO)cc1 (stereo not given) shows growth of no less than 20%?
Response: true (1)

Request: Could you verify whether the entry "COC(=O)[C@@H](NC(=O)c1cn(CCC2CCCCC2)c2ccccc12)C(C)(C)C" shows growth of no less than 20%?
Response: true (1)

Request: Could you verify whether the entry "O[C@H](CN1CC1)[C@@H](O)CN1CC1" shows growth of no less than 20%?
Response: true (1)

Turning now to a further record.
Request: Could you verify whether the entry "CC1(C)N=C(N)N=C(N)N1c1cccc(CCCCc2ccc(Cl)c(S(=O)(=O)F)c2)c1" shows growth of no less than 20%?
Response: true (1)

----------
Test system: SNB-19 CNS
protocol: NCI-60 one-dose screen, 48 h (100 = growth as untreated, 0 = no growth, -100 = all killed)
conditionsUsed: 10 µM unless noted
Description: Growth inhibition of the SNB-19 human tumor cell line is measured as a screen for anti-cancer activity. Cells are grown in 96 well plates and exposed to the test compound for 48 hours. Compounds are tested at a single concentration, which is 10^-5 M for most compounds. The reported endpoint is percent growth (GI% or GIPRCNT), where numbers from 0 - 100% represent growth inhibition, and numbers from -100% - 0 represent cell death. For example, a value of 40 represents 60% growth inhibition. […]
This is part of a sample that, as a whole, favours compounds with a hit. Of some 83,000 tested, about 20% had one in any assay.
measuredAttribute: growth (%)
All answers are understood in %, so give the number only.

Check out these entries, answers already filled in.
Request: I'd like to know its growth. The compound in question is "COC(=O)C12CC(NC(=O)c3csc([C@@H](C[C@H](C(C)C)N(C)C(=O)[C@@H](NC(=O)[C@H]4CCCCN4C)C4CC4)OC(C)=O)n3)(C1)C2"
Response: 39.6

Request: I'd like to know its growth. The compound in question is "Cn1cc(-c2csc(-c3cn(CCN4CCOCC4)c4ccc(F)cc34)n2)c2cccnc21"
Response: 49.2

Request: I'd like to know its growth. The compound in question is "CCCC[C@H](NC(=O)[C@H]1CCCCN1C)C(=O)N(C)[C@H](C[C@@H](OC(C)=O)c1nc(C(=O)N[C@@H](Cc2ccccc2)C[C@H](C)C(=O)OCC)cs1)C(C)C"
Response: 37.5

Request: I'd like to know its growth. The compound in question is "COc1ccc(/C=C\c2cc(OC)c(OC)c(OC)c2)c(NS(=O)(=O)c2ccc(Cl)cc2)c1O"
Response: 53.4

Request: I'd like to know its growth. The compound in question is "COc1cc(C=Nc2cc(Cl)cc(Cl)c2)ccc1N(CCCl)CCCl"
Response: 89.8

# input for lookup
Request: I'd like to know its growth. The compound in question is "CC(=O)O[C@H](C[C@H](C(C)C)N(C)C(=O)[C@@H](NC(=O)[C@H]1CCCCN1C)C(C)C)c1cccc(C(=O)N[C@@H](Cc2ccccc2)C[C@H](C)C(=O)O)n1"
Response: 22.4
